# Target: HLA-B*27:03
# Experiment description: IEDB peptide-MHC binding, purified MHC/competitive/fluorescence; filed as Kd, often an IC50 or EC50 that approximates it; bounds were set here for any values at or beyond the usual limits of such assays
# Assay context: source organism: Pan troglodytes
pKd: −log10 of the molar value.
Reported property: pKd

Entry "YYFSYPLFV" ; assay system HLA-B*27:03; pKd recorded at ≤ 4.70

* * *

# Target: HLA-B*53:01
# Experiment description: IEDB peptide-MHC binding, purified MHC/competitive/radioactivity; filed as Kd, often an IC50 or EC50 that approximates it; bounds were set here for any values at or beyond the usual limits of such assays
# Assay context: source organism: Dengue virus 1 Singapore/S275/1990
Reported property: Kd (nM)
Express your answer in nM, writing the number without its unit.

Lab note: measured Kd of "WATLLSLTF" was 4.07
